Measured log10 of IC50 accompanies every entry in the list below.
Target: human CSNK1D tagged with nanoluciferase (Homo sapiens (Human))
Sequence (P48730 whole entry): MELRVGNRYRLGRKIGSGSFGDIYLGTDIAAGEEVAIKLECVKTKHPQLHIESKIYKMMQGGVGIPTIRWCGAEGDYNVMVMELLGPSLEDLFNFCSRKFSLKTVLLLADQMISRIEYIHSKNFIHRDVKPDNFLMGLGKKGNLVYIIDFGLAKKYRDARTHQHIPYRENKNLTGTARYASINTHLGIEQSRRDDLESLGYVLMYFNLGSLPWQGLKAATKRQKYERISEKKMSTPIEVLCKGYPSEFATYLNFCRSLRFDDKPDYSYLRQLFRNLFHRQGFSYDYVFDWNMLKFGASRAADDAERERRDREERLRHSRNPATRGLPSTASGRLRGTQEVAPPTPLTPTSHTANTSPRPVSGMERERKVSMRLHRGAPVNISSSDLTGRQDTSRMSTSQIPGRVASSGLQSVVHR
Assay: Whole Cell nBRET CSNK1D Binding Assay
Details: living CHO cells stably expressing human CSNK1D-nanoluciferase; NanoBret tracer 130 nM; 2 hours 37° C.; read-out: CSNK1D BRET IC50
Values below are the log10 of the recorded IC50, with nM as the unit.

Ask | For the molecule `Cc1cc(-c2cn(C3CCC3)nc2-c2ccc(F)cn2)c2cn[nH]c2n1` , what log10 of IC50 is on record?
Reply | 2.05

Continuing:
Ask | For the molecule `Cn1cc(-c2ccnc3[nH]ccc23)c(-c2cccnc2)n1` , what log10 of IC50 is on record?
Reply | 2.56

Ask | For the molecule `Cc1nc(-c2cn(C)nc2-c2ccc(F)cn2)c2cn[nH]c2n1` , what log10 of IC50 is on record?
Reply | 3.29

Ask | For the molecule `Cn1cc(-c2ccnc3[nH]ccc23)c(-c2cnccn2)n1` , what log10 of IC50 is on record?
Reply | 3.34

Ask | For the molecule `CC(C)Cn1cc(-c2ccnc3[nH]ccc23)c(-c2ccc(F)cn2)n1` , what log10 of IC50 is on record?
Reply | 2.06

Ask | For the molecule `Cn1cc(-c2ccnc3[nH]c(C(F)F)cc23)c(-c2ccc(F)cn2)n1` , what log10 of IC50 is on record?
Reply | 2.35

Ask | For the molecule `Cn1cc(-c2ccnc3[nH]ccc23)c(-c2cc(F)ccn2)n1` , what log10 of IC50 is on record?
Reply | 2.25

Ask | For the molecule `Cn1cc(-c2ccnc3cc(Cl)ccc23)c(-c2ccc(F)cn2)n1` , what log10 of IC50 is on record?
Reply | 2.91

Ask | For the molecule `Cn1cc(-c2ccnc3sccc23)c(-c2ccc(F)cn2)n1` , what log10 of IC50 is on record?
Reply | 2.89

Ask | For the molecule `Cn1cc(-c2ccnc3ccc(C#N)cc23)c(-c2ccc(F)cn2)n1` , what log10 of IC50 is on record?
Reply | 3.26

Ask | For the molecule `Cc1cc(-c2cn(C)nc2-c2ccc(Cl)c(C)n2)c2cn[nH]c2n1` , what log10 of IC50 is on record?
Reply | 3.51

Ask | For the molecule `CCn1cc(-c2ccnc3[nH]ncc23)c(-c2ccc(F)cn2)n1` , what log10 of IC50 is on record?
Reply | 2.31

Ask | For the molecule `Cc1cc(-c2cn(C(F)F)nc2-c2ccc(F)cn2)c2cn[nH]c2n1` , what log10 of IC50 is on record?
Reply | 3.12

Ask | For the molecule `Cn1cc(-c2ccnc3cc(F)cnc23)c(-c2ccc(F)cn2)n1` , what log10 of IC50 is on record?
Reply | 2.76

Ask | For the molecule `Cn1cc(-c2ccnc3[nH]ccc23)c(-c2ccc(Cl)cn2)n1` , what log10 of IC50 is on record?
Reply | 2.40

Ask | For the molecule `Cn1cc(-c2ncnc3[nH]ccc23)c(-c2ccc(F)cn2)n1` , what log10 of IC50 is on record?
Reply | 3.11

Ask | For the molecule `Cc1cc(-c2cn(CC(F)(F)F)nc2-c2ccc(F)cn2)c2cn[nH]c2n1` , what log10 of IC50 is on record?
Reply | 2.37

Ask | For the molecule `Cc1ccc2nccc(-c3cn(C)nc3-c3ccc(F)cn3)c2n1` , what log10 of IC50 is on record?
Reply | 3.65

Ask | For the molecule `Cc1cc(-c2cn(C3CC3)nc2-c2ccc(F)cn2)c2cn[nH]c2n1` , what log10 of IC50 is on record?
Reply | 2.52
